- measurement.protocol: Volume of distribution at steady state in analbuminemic Nagase rat plasma at 1 mg/kg, iv administered as single dose by high-performance liquid chromatography
- Type: ADME, organism-based
- Parameters: dose 1 mg/kg, route intravenous
- particulars: read-out: Vdss
Starred links: 1 amine or outer side, 2 acyl side, 3 side chain; linkers in the order of their positions; H or OH if unused. Positions of bridges follow the written chain, without caps; N, C: chain ends. Non-standard residues stand in square brackets, D forms with d. Residues, ends and D or L forms follow the SMILES beside them. *: point of attachment. hTyr(3S-OH,4S-OH,3'-OSO3H) = N[C@H](C(=O)O)[C@H](O)[C@@H](O)c1ccc(O)c(OS(=O)(=O)O)c1; Orn(4R-OH,5R-OH) = O=C([C@H](C[C@@H](O)[C@@H](O)N[*:3])N[*:1])[*:2]; Pro(3S-OH,4S-Me) = C[C@H]1CN[C@H](C(=O)O)[C@H]1O; X1 = CCCCCOc1ccc(-c2cc(-c3ccc(C(=O)*)cc3)no2)cc1; Gln(3R-OH) = NC(=O)C[C@@H](O)[C@H](N)C(=O)O; Hyp = O=C(O)[C@@H]1C[C@@H](O)CN1
outcome.measure: Vd (L/kg)
# output: bare number, implied unit L/kg

Request: Query (compound): CCCCCOc1ccc(-c2cc(-c3ccc(C(=O)N[C@H]4C[C@@H](O)[C@@H](O)NC(=O)[C@@H]5[C@@H](O)[C@@H](C)CN5C(=O)[C@H]([C@H](O)CC(N)=O)NC(=O)[C@H]([C@H](O)[C@@H](O)c5ccc(O)c(OS(=O)(=O)O)c5)NC(=O)[C@@H]5C[C@@H](O)CN5C(=O)[C@H]([C@@H](C)O)NC4=O)cc3)no2)cc1 [MICAFUNGIN] (X1-[Orn(4R-OH,5R-OH)]T[Hyp][hTyr(3S-OH,4S-OH,3'-OSO3H)][Gln(3R-OH)][Pro(3S-OH,4S-Me)]; lactam 1-C) ; field requested: Vd
Response: 0.52
